The reported measurements were obtained from patent US6897291B1.

# Target Of Assay: mSlo3 (Mus musculus, UniProt O54982, V141G)
# Construct: A full-length mSlo3 cDNA was cloned into pBSC-MXT
# Sequence (O54982 with tags, fused parts or gaps V141G limits assumed): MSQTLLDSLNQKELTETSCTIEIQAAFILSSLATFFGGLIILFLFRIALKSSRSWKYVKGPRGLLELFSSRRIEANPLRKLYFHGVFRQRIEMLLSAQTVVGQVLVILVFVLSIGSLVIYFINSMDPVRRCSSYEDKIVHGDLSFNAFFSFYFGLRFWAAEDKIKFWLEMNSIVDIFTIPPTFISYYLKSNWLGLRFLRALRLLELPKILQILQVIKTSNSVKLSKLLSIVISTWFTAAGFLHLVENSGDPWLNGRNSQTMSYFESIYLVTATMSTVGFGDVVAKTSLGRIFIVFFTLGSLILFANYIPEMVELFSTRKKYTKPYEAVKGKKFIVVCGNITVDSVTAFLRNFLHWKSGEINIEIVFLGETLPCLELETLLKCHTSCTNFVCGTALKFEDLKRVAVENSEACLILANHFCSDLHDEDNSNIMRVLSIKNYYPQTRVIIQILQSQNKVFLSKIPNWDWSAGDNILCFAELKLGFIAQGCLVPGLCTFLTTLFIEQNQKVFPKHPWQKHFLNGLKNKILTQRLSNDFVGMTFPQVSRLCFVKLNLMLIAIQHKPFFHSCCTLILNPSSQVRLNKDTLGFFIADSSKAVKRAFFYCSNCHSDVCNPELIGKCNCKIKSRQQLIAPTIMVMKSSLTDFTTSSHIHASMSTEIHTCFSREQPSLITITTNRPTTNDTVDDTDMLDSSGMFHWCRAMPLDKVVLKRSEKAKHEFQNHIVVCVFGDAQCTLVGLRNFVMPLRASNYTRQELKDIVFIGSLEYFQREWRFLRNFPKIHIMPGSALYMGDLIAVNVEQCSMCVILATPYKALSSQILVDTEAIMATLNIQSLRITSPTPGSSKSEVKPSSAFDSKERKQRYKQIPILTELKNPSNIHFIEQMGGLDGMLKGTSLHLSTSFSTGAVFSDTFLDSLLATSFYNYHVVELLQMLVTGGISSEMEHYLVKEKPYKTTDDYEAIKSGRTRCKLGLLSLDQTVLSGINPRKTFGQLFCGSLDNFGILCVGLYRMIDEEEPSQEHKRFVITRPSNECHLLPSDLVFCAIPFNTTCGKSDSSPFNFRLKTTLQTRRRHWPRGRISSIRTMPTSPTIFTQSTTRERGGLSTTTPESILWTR
# Experiment: mSlo3 currents expressed in Xenopus oocytes, electrophysiology
# Conditions Used: mSlo3 expressed in Xenopus oocytes; read-out: EC50 (sensitivity to TEA)
# Experimental: A full-length mSlo3 cDNA was cloned into pBSC-MXT, a Bluescript-derived plasmid (Stratagene) containing Xenopus β-globin 5′ and 3′ untranslated sequences. cDNA expression constructs were linearized at a unique Not-I site, and capped cRNA was synthesized using the mMessage mMachine (Ambion). […] Oocytes were incubated in ND96 medium (Wei et al., 1994, supra) and analyzed 1-8 days after injection. […]
Experimental Endpoint: EC50

compound_structure_string=CC[N+](CC)(CC)CC experimental_endpoint=EC50 endpoint_result="~100 mM"
